Target: ATP-dependent translocase ABCB1 (Homo sapiens, UniProt P08183)
Sequence (P08183 whole entry): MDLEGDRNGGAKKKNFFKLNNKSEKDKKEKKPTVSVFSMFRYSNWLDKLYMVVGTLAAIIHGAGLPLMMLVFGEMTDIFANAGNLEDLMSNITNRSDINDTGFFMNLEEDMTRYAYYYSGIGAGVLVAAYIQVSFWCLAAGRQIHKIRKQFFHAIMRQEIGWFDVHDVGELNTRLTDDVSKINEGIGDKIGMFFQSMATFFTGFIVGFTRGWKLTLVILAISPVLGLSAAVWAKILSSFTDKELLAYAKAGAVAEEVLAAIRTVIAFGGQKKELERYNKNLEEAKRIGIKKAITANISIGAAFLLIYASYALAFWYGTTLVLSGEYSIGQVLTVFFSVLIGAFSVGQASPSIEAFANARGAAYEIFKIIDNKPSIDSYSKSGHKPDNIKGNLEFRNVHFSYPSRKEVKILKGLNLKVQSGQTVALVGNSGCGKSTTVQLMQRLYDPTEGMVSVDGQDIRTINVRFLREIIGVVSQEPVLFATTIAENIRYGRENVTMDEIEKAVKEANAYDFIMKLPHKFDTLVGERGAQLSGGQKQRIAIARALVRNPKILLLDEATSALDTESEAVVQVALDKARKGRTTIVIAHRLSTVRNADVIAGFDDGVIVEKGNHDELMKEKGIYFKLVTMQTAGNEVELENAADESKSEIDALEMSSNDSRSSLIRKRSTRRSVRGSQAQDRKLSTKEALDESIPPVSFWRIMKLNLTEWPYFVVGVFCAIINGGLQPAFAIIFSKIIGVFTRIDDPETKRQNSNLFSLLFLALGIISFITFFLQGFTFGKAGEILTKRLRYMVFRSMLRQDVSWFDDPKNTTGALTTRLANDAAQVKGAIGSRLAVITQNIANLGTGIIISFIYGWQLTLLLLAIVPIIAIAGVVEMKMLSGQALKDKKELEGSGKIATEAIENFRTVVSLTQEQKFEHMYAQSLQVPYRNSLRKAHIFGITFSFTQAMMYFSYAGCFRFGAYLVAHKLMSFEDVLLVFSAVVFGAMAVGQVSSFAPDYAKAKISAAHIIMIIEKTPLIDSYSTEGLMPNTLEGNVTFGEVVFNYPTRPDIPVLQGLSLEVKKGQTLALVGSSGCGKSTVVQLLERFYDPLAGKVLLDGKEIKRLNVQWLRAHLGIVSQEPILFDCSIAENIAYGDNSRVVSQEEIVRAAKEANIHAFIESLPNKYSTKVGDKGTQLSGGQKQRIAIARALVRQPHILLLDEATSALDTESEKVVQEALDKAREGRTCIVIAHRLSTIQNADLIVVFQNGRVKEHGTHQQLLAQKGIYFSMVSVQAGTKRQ
Experiment: Inhibition of P-glycoprotein-mediated Rhodamine-123 efflux in human K562/DOX cells assessed as […] at 1 uM […] by flow cytometry relative to control
Assay type: cell-based
Parameters: scale not given: the % may be the effect or the level left
Conditions: 0.5 h
Result Type: Activity (%)

Item Smiles: COc1cc(/C=C/C(=O)OCCCN(C)CCCCCCCOC(=O)c2c3ccccc3cc3ccccc23)cc(OC)c1OC
Activity [%]: 84.7

Item Smiles: COc1cc(/C=C/C(=O)OCCCCN(C)CCCCCCOC(=O)c2c3ccccc3cc3ccccc23)cc(OC)c1OC
Activity [%]: 64.6

(P) COc1cc(/C=C/C(=O)OCCCCCCCN(C)CCCOC(=O)c2cc(OC)c(OC)c(OC)c2)cc(OC)c1OC
(Q) COc1cc(/C=C/C(=O)OCCCCCCN(C)CCCCOC(=O)c2c3ccccc3cc3ccccc23)cc(OC)c1OC
Ask: Parameter metric = Activity. Return the lower-valued option from P and Q . Returns: label corresponding to the selected item.
Result: P
(P: 58.4%, Q: 92.8%)

Each recorded value in this set is attributed to ChEMBL document CHEMBL4393665.
